TARGET: Corticotropin-releasing factor receptor 2/Corticotropin-releasing factor-binding protein (Homo sapiens, UniProt P24387+Q13324)
Sequence (Q13324 whole entry): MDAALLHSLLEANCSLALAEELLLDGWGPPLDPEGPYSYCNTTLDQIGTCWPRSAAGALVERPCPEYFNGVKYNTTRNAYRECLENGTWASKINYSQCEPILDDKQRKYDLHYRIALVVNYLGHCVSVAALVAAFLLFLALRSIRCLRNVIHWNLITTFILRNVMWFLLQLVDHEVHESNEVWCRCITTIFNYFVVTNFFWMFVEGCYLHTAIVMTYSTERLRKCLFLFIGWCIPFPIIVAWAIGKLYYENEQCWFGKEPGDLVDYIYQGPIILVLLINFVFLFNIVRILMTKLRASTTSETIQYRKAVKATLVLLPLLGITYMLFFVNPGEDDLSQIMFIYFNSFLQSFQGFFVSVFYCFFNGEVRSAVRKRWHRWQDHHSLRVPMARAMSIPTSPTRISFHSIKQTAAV
Sequence (P24387 whole entry): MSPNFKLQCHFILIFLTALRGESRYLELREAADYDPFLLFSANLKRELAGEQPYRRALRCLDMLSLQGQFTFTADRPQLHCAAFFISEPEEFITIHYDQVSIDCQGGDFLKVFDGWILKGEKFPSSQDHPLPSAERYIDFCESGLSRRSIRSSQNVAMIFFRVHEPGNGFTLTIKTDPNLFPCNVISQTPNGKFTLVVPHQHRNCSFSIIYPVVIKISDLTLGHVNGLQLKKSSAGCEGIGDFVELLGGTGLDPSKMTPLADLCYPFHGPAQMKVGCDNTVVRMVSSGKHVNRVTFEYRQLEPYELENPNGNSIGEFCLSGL
ASSAY_OVERVIEW: Dose Response confirmation of uHTS hits for small molecule antagonists of the CRF-binding protein and CRF-R2 receptor complex.
Type: functional
MEASUREMENT_SETUP: read-out: IC50_Mean
The source made the active and inactive calls. No stated cut-off is given here; in the data, actives have a measured IC50 and inactives only a lower limit.
Your answer must be one of the following: active, inactive

| COMPOUND | CLASS |
| --- | --- |
| Cc1nnc(C)n1/N=C/c1cccs1 | inactive |
| COc1ccc(/C=C/C(=O)NCCSCc2ccco2)cc1OC | inactive |
| COc1ccccc1C1SCCN1S(=O)(=O)c1ccccc1 (configuration not stated) | inactive |
| COc1ccccc1/C=C/c1nc(S(=O)(=O)c2ccccc2)c(N(C)C)o1 | active |
| COc1ccc(C(C)=NNc2ccc([N+](=O)[O-])cc2S(=O)(=O)Nc2ccccc2C(=O)O)c(OC)c1 | active |

Dear colleague, could you share the recorded outcome for COCCn1c(SCC(=O)Nc2cccc(C(=O)OC)c2)nc2ccccc2c1=O when you have a moment?
inactive

Dear colleague, could you share the recorded outcome for Cc1ccc(C(C)(C)C)cc1S(=O)(=O)Nc1nc2ccccc2nc1Cl when you have a moment?
active

Dear colleague, could you share the recorded outcome for Cc1cccc(NC(=O)CSc2nc3n[nH]cc3c(=O)[nH]2)c1C when you have a moment?
inactive

Dear colleague, could you share the recorded outcome for CCOc1ccc(/N=c2\scc(-c3ccc(OC)cc3)n2CCO)cc1 when you have a moment?
active

Dear colleague, could you share the recorded outcome for O=C(C[n+]1nc(CNc2ccc(Cl)cc2)n2c1CCCCC2)c1ccc(Br)cc1 when you have a moment?
inactive

Dear colleague, could you share the recorded outcome for CCOc1ccc(S(=O)(=O)N2CN(c3cccc(C(C)=O)c3)c3nc4ccccc4nc32)cc1 when you have a moment?
active

Dear colleague, could you share the recorded outcome for COc1cccc(C(=O)OCC(=O)NCCC2=CCCCC2)c1 when you have a moment?
inactive
